The values you see were collected from patent US20080207677A1.

Below, each of the compounds is paired with its reported IC50 value.
Molecular target: recombinant human ROCK2 (amino acids 1-530, aminoterminal 6×His tag) (Homo sapiens)
Construct: recombinant human ROCK2 (amino acids 1-530, aminoterminal 6×His tag); 6xHis (N)
Sequence (O75116 1-530): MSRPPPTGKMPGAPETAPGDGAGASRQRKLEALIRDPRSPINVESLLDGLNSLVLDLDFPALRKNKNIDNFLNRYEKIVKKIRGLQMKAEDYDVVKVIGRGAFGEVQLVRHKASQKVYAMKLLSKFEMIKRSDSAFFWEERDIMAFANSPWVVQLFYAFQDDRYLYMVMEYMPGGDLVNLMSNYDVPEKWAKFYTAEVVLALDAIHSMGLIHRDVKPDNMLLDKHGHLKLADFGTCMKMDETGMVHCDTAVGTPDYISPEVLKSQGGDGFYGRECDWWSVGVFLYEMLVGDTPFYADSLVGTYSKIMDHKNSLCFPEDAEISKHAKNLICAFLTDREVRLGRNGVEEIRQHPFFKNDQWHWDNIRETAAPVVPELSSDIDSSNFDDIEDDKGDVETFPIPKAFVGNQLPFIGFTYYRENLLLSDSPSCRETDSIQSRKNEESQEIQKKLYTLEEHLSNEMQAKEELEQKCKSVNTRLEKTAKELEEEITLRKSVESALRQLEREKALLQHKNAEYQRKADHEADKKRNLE
Test: Determination of ROCK kinase activity, IMAP assay, ROCK2 human
Settings: in vitro kinase assay, ATP 34.8 μM
Return type: number; implicit unit nM.

Consider the reported IC50 for these compounds:
- compound: "O=C(NCc1ccccc1F)c1ccc2cnccc2n1"
  target_system: "recombinant human ROCK2 (amino acids 1-530, aminoterminal 6×His tag) (Homo sapiens)"
  IC50 (nM): 2080
- compound: "CCC(NC(=O)c1ccc2cnccc2n1)c1ccc(Cl)cc1 (stereo not drawn)"
  target_system: "recombinant human ROCK2 (amino acids 1-530, aminoterminal 6×His tag) (Homo sapiens)"
  IC50 (nM): 480
- compound: "CC(NC(=O)c1ccc2cnccc2n1)c1ccc(F)cc1 (stereo not drawn)"
  target_system: "recombinant human ROCK2 (amino acids 1-530, aminoterminal 6×His tag) (Homo sapiens)"
  IC50 (nM): 340
- compound: "Cc1ccc(CNC(=O)c2ccc3cnccc3n2)cc1"
  target_system: "recombinant human ROCK2 (amino acids 1-530, aminoterminal 6×His tag) (Homo sapiens)"
  IC50 (nM): 2230
- compound: "O=C(NCc1cccc(Cl)c1)c1ccc2cnccc2n1"
  target_system: "recombinant human ROCK2 (amino acids 1-530, aminoterminal 6×His tag) (Homo sapiens)"
  IC50 (nM): 2570
- compound: "O=C(NCc1ccccc1Cl)c1ccc2cnccc2n1"
  target_system: "recombinant human ROCK2 (amino acids 1-530, aminoterminal 6×His tag) (Homo sapiens)"
  IC50 (nM): 3830
- compound: "CC(NC(=O)c1ccc2cnccc2n1)c1ccc(Cl)cc1 (stereo not drawn)"
  target_system: "recombinant human ROCK2 (amino acids 1-530, aminoterminal 6×His tag) (Homo sapiens)"
  IC50 (nM): 770
- compound: "C[C@@H](NC(=O)c1ccc2cnccc2n1)c1ccc2ccccc2c1"
  target_system: "recombinant human ROCK2 (amino acids 1-530, aminoterminal 6×His tag) (Homo sapiens)"
  IC50 (nM): 880
- compound: "O=C(NCc1ccc(Br)cc1)c1ccc2cnccc2n1"
  target_system: "recombinant human ROCK2 (amino acids 1-530, aminoterminal 6×His tag) (Homo sapiens)"
  IC50 (nM): 1330
- compound: "O=C(NCCc1ccc(Br)cc1)c1ccc2cnccc2n1"
  target_system: "recombinant human ROCK2 (amino acids 1-530, aminoterminal 6×His tag) (Homo sapiens)"
  IC50 (nM): 1520

Query: What does the data say about its IC50? Entry: CCOc1ccccc1CNC(=O)c1ccc2cnccc2n1
Response: 13000

Query: What would you report for CCC(NC(=O)c1ccc2cnccc2n1)c1ccc(C)cc1 (stereo not drawn) ?
Response: 1260
